Origin of values: ChEMBL document CHEMBL4765483

- Experimental Target: Adenosine receptor A3 (Homo sapiens) (UniProt P0DMS8)
- Sequence (P0DMS8 whole entry): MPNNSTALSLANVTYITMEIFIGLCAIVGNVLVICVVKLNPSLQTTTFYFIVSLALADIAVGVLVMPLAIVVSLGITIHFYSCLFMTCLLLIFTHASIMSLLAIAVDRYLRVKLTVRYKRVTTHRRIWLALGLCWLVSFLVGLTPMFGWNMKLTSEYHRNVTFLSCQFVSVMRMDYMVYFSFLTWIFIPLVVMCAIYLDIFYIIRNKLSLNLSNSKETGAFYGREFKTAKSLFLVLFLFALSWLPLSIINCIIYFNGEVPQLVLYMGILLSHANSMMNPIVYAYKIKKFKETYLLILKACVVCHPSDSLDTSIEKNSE
- Assay Notes: Displacement of [3H]NECA from adenosine A3 receptor expressed in human HeLa cell membranes at 1 uM incubated for 180 mins by scintillation counting method
- Assay Setup: Cell membrane
Assignment: determine reported inhibition for the given compounds.
Answers are plain numbers, in %.

Worked cases, answers included:
compound="CC1=C(C(=O)OCC(C)C)C(c2ccoc2)NC(=O)N1C (racemic)" experimental_target="Adenosine receptor A3 (Homo sapiens) (UniProt P0DMS8)" units_label=% data_value=16
compound="CC1=C(C(=O)OCc2ccccc2)C(c2cccs2)NC(=O)N1C (racemic)" experimental_target="Adenosine receptor A3 (Homo sapiens) (UniProt P0DMS8)" units_label=% data_value=18
compound="CC1=C(C(=O)OC2CCC2)C(c2cccs2)NC(=O)N1 (racemic)" experimental_target="Adenosine receptor A3 (Homo sapiens) (UniProt P0DMS8)" units_label=% data_value=2
compound="CC1=C(C(=O)OCC2CC2)C(c2cccs2)NC(=O)N1 (racemic)" experimental_target="Adenosine receptor A3 (Homo sapiens) (UniProt P0DMS8)" units_label=% data_value=1
compound="CC1=C(C(=O)OC2CCCC2)C(c2ccsc2)NC(=O)N1 (racemic)" experimental_target="Adenosine receptor A3 (Homo sapiens) (UniProt P0DMS8)" units_label=% data_value=5

Parameter requested: inhibition. Apply to each item below.
1. CC1=C(C(=O)C2CC2)C(c2ccoc2)NC(=O)N1 (racemic)
2. COC(=O)C1=C(C)NC(=S)NC1c1ccoc1 (racemic)

OUTPUT:
1. 16
2. 3
